- assay target: NZF-1-F2F3 (Rattus norvegicus, UniProt P70475 487-584)
- Sequence (P70475 487-584): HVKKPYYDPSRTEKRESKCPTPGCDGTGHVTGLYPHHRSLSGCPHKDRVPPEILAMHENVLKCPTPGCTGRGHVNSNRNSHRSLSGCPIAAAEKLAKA
- protocol details: fluorescence anisotropy
measured metric: Kd (nM)
Numbers only, in nM.

The recorded Kd for entry β-RAR DNA (dsDNA) DNA 1: CACCGAAAGTTCACTC DNA 2: GAGTGAACTTTCGGTG equals 14
